target_under_test: human progesterone receptor-A [PRA] isoform (Homo sapiens, UniProt P06401)
Construct: host or cells: insect SF21 cells (baculovirus)
Sequence (P06401 165-933): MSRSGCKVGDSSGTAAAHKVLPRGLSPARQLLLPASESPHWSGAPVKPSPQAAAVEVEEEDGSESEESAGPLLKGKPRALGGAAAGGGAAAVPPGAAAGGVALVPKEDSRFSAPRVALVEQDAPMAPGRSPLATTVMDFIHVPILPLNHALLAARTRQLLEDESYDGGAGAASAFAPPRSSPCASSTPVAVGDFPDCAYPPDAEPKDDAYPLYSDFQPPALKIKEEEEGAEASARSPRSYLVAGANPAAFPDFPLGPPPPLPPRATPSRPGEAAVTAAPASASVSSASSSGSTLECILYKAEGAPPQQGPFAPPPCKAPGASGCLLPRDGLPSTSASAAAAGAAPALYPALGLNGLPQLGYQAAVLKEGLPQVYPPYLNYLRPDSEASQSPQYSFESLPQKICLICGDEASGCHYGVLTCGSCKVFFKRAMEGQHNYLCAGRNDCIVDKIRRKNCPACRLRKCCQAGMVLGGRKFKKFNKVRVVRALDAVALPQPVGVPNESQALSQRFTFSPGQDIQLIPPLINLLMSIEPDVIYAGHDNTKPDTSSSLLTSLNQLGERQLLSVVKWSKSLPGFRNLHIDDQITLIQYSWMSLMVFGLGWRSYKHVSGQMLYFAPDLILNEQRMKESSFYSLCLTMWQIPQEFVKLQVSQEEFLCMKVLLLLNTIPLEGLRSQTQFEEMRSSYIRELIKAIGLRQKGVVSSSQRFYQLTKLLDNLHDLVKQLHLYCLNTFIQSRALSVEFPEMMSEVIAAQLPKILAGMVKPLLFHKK
experiment_notes: Radioligand binding with human progesterone receptor cytosol ([3H]-progesterone competition)
study_conditions: PRA cytosol expressed in insect SF21 cells, [3H]Prog ~0.8 nM, 4° C. overnight; Ki by Cheng-Prusoff, KL ~4.5 nM; read-out: Ki (nM) PR
Lab note: cut-off is 2000 nM. Strictly less in Ki is t. Exactly 2000 nM or more is f.

{"molecule": "CC1=CC(C)(C)Nc2ccc3c(c21)C(CC(C)C)Oc1ccc(O)c(Cl)c1-3 (stereo not shown)", "group": "t"}
{"molecule": "C=CCC1Oc2cccc(OC)c2-c2ccc3c(c21)C(C)=CC(C)(C)N3 (single isomer, unassigned; (-)) [Example 36]", "group": "t"}
{"molecule": "CCOC(=O)C1Oc2cccc(OC)c2-c2ccc3c(c21)C(C)=CC(C)(C)N3 (stereo not shown)", "group": "t"}
{"molecule": "C=CCC1Oc2ccc(OC(=O)CCCC(=O)N3CCCCC3)c(OC)c2-c2ccc3c(c21)C(C)=CC(C)(C)N3 (stereo not shown)", "group": "t"}
{"molecule": "C=CCC1Oc2ccc(OC(=O)CCCC(=O)N(CC)CC)c(OC)c2-c2ccc3c(c21)C(C)=CC(C)(C)N3 (stereo not shown)", "group": "t"}
{"molecule": "COc1cccc2c1-c1ccc3c(c1C(C(C)C)O2)C(C)=CC(C)(C)N3 (stereo not shown)", "group": "f"}
{"molecule": "COc1cccc2c1-c1ccc3c(c1C(C1C=C(COC(C)=O)CCC1)O2)C(C)=CC(C)(C)N3 (stereo not shown)", "group": "f"}
